Taken from the Kinase Knowledgebase extract (Sharma et al. 2016).

# TESTED_SYSTEM: EGFR (human) (UniProt P00533)
# Sequence (P00533 whole entry, looked up): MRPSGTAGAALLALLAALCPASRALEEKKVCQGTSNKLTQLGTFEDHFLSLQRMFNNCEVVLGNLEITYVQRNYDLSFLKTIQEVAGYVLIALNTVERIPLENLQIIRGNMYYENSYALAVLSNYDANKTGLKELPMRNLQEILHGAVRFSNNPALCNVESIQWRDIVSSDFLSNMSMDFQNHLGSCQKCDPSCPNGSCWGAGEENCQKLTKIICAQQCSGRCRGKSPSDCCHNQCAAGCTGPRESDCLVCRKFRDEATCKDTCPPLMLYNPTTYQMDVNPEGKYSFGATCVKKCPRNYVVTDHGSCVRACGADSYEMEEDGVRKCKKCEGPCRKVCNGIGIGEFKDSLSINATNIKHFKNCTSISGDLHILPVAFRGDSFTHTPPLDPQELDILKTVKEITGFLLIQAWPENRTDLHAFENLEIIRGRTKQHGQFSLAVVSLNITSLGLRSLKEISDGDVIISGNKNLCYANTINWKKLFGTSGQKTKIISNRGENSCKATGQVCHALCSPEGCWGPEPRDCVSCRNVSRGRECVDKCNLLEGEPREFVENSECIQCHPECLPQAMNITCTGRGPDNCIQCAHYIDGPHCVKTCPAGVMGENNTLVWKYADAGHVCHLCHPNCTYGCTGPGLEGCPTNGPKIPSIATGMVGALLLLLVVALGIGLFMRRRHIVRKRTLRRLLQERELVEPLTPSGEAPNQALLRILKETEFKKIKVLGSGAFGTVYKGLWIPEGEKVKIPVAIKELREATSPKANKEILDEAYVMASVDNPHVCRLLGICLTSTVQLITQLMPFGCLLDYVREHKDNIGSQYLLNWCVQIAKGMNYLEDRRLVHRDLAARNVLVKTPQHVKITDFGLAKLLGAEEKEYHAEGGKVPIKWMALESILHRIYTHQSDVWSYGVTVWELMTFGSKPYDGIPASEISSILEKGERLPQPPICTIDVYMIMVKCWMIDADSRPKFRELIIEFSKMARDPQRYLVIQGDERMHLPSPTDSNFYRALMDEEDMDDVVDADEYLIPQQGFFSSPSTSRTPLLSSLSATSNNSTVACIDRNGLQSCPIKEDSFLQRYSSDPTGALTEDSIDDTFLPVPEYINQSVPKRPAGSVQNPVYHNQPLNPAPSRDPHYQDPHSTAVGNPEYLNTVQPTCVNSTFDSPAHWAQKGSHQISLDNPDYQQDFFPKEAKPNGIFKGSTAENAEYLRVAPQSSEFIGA
# REPORTED_CONDITIONS: skov-3
REPORTED_ENDPOINT: IC50 (µM)

(A) CC(=O)Oc1ccc(OC(C)=O)c2c1CC(C)=CCC[C@]13O[C@H]1[C@H]2OC3=O
(B) CC1=CCC[C@]23O[C@H]2[C@@H](OC3=O)C2=C(C1)C(=O)C(O)=CC2=O
(C) CC1=CCC[C@]23O[C@H]2[C@@H](OC3=O)C2=C(C1)C(=O)C=CC2=O
Rank order required: IC50, descending. Give the labels in the order requested. A, C, B

====

# TESTED_SYSTEM: EGFR (human) (UniProt P00533)
# REPORTED_CONDITIONS: igrov-1
REPORTED_ENDPOINT: IC50 (µM)

CC1=CCC[C@]23O[C@H]2[C@@H](OC3=O)C2=C(C1)C(=O)C(O)=CC2=O	0.8

(a) CC(=O)Oc1ccc(OC(C)=O)c2c1CC(C)=CCC[C@]13O[C@H]1[C@H]2OC3=O
(b) CC1=CCC[C@]23O[C@H]2[C@@H](OC3=O)C2=C(C1)C(=O)C=CC2=O
Task for the reader: decide whether a or b has the larger IC50. In your reply, give the label of the chosen option. a
(a: 22.4 µM, b: 6.1 µM)
